I'd be grateful if you could share measured B2 = % Toxicity of test compound (20 μM) for these entries.
# System: CV1 cells
# procedure.text: Toxicity of test compound in the CV1 reporter gene assay (Renilla-Luc)
# Assay type: cell-based
# protocol.conditions: 20 μM
Give bare numbers, in %.

Here are 3 compounds together with their reported answers.
O=[N+]([O-])c1ccc(C2C3=C(CCCC3)Nc3ccc4ccccc4c32)cc1 (stereo not shown): 23
CC1(C)CC(=O)C2=C(C1)Nc1ccc3ccccc3c1C2c1c[nH]c2ccccc12 (stereo not shown): 0
CC1(C)CC(=O)C2=C(C1)Nc1ccc3ncccc3c1C2c1ccc(O)cc1 (stereo not shown): 0

B2 = % Toxicity of test compound (20 μM) for Cc1n[nH]c2c1C(c1ccc([N+](=O)[O-])cc1)C1=C(N2)C(C)(C)CCC1=O (stereo not shown) ? 0

---

I'd be grateful if you could share measured B2 = % Toxicity of test compound (20 μM) for these entries.
# Tested on: CV1 cells
# procedure.text: Toxicity of test compound in the CV1 reporter gene assay (Renilla-Luc)
# Format: cell-based
# protocol.conditions: 20 μM
One number for each entry, in %.

CC1(C)CC(=O)C2=C(C1)Nc1ccc3ccccc3c1C2c1cccc(C(F)(F)F)c1 (stereo not shown): 0
O=C1CCCC2=C1Nc1ccc3ccccc3c1C2c1ccc([N+](=O)[O-])cc1 (stereo not shown): 17
O=C1CCCC2=C1C(c1ccc([N+](=O)[O-])cc1)c1c(ccc3ccccc13)N2 (stereo not shown): 32

Please examine the following record next.
B2 = % Toxicity of test compound (20 μM) for O=C1CCCC2=C1C(c1ccc(Cl)cc1Cl)c1c(ccc3ccccc13)N2 (stereo not shown) ? 75

---

# System: CV1 cells
# procedure.text: Toxicity of test compound in the CV1 reporter gene assay (Renilla-Luc)
# Format: cell-based
# protocol.conditions: 20 μM
I'd be grateful if you could share measured B2 = % Toxicity of test compound (20 μM) for these entries.
Answers are plain numbers, in %.

O=C1CCCC2=C1C(c1ccc3c(c1)OCO3)c1c(ccc3ccccc13)N2 (centres unmarked) [Compound A15]: 0
CC1(C)CC(=O)C2=C(C1)Nc1ccc3ncccc3c1C2c1ccc([N+](=O)[O-])cc1 (centres unmarked) [Compound A2]: 0
CC1(C)CC(=O)C2=C(C1)Nc1ccc3ccccc3c1C2c1ccc(Cl)c([N+](=O)[O-])c1 (centres unmarked) [Compound A6]: 0

Need B2 = % Toxicity of test compound (20 μM) for each of these compounds.
1. O=C1CCCC2=C1C(c1ccc([N+](=O)[O-])cc1)c1c(ccc3ncccc13)N2 (centres unmarked) [Compound A18]
2. N#Cc1ccc(C2C3=C(CCCC3=O)Nc3ccc4ccccc4c32)cc1 (centres unmarked) [Compound A22]

[0, 0]

Need B2 = % Toxicity of test compound (20 μM) for each of these compounds.
1. O=C1CCCC2=C1C(c1cccc([N+](=O)[O-])c1)c1c(ccc3ccccc13)N2 (centres unmarked) [Compound A21]
2. CC1(C)CC(=O)C2=C(C1)Nc1ccc3ccccc3c1C2c1cccnc1 (centres unmarked) [Compound A13]

1. 0
2. 0

B2 = % Toxicity of test compound (20 μM) for CC1(C)CC(=O)C2=C(C1)Nc1ccc3ncccc3c1C2c1ccc(Cl)c([N+](=O)[O-])c1 (centres unmarked) [Compound A5] ? 24

---

# System: CV1 cells
# procedure.text: Toxicity of test compound in the CV1 reporter gene assay (Renilla-Luc)
# Format: cell-based
# protocol.conditions: 60 μM
Rule: B3 = % Toxicity of test compound (60 μM) of 40% or more gives fulfilled; anything lower gives not fulfilled.

CC1(C)CC(=O)C2=C(C1)Nc1ccc3ncccc3c1C2c1ccc(Cl)c([N+](=O)[O-])c1 (stereo not drawn): fulfilled
CC1(C)CC(=O)C2=C(C1)Nc1ccc3ccccc3c1C2c1ccncc1 (stereo not drawn): fulfilled
CC1(C)CC(=O)C2=C(C1)Nc1ccc3ccccc3c1C2c1ccc(C#N)cc1 (stereo not drawn): not fulfilled

Exam item: decide whether the reported B3 = % Toxicity of test compound (60 μM) for CC1(C)CC(=O)C2=C(C1)Nc1ccc3ccccc3c1C2c1ccc(-c2nnc(N)s2)cc1 (stereo not drawn) is at least 40%. fulfilled

One more compound: O=C1CCCC2=C1C(c1ccc([N+](=O)[O-])cc1)c1c(ccc3ccccc13)N2 (stereo not drawn) fulfilled

One more compound: CC1(C)CC(=O)C2=C(C1)Nc1ccc3ccccc3c1C2c1cccnc1 (stereo not drawn) fulfilled

One more compound: CC1(C)CC(=O)C2=C(C1)Nc1ccc3ccccc3c1C2c1cc([N+](=O)[O-])c(O)cc1Cl (stereo not drawn) not fulfilled

One more compound: N#Cc1ccc(C2C3=C(CCCC3=O)Nc3ccc4ccccc4c32)cc1 (stereo not drawn) fulfilled

One more compound: CC1(C)CC(=O)C2=C(C1)Nc1ccc3ncccc3c1C2c1ccc(O)cc1 (stereo not drawn) not fulfilled

One more compound: O=C1CCCC2=C1C(c1ccc(O)cc1)c1c(ccc3ccccc13)N2 (stereo not drawn) not fulfilled

One more compound: O=C1CCCC2=C1C(c1cccc([N+](=O)[O-])c1)c1c(ccc3ccccc13)N2 (stereo not drawn) not fulfilled

---

# assayed.system: AR (Homo sapiens)
# Construct: expressed in transfected cells; host or cells: CV1 cells
# Sequence (P10275 1-920): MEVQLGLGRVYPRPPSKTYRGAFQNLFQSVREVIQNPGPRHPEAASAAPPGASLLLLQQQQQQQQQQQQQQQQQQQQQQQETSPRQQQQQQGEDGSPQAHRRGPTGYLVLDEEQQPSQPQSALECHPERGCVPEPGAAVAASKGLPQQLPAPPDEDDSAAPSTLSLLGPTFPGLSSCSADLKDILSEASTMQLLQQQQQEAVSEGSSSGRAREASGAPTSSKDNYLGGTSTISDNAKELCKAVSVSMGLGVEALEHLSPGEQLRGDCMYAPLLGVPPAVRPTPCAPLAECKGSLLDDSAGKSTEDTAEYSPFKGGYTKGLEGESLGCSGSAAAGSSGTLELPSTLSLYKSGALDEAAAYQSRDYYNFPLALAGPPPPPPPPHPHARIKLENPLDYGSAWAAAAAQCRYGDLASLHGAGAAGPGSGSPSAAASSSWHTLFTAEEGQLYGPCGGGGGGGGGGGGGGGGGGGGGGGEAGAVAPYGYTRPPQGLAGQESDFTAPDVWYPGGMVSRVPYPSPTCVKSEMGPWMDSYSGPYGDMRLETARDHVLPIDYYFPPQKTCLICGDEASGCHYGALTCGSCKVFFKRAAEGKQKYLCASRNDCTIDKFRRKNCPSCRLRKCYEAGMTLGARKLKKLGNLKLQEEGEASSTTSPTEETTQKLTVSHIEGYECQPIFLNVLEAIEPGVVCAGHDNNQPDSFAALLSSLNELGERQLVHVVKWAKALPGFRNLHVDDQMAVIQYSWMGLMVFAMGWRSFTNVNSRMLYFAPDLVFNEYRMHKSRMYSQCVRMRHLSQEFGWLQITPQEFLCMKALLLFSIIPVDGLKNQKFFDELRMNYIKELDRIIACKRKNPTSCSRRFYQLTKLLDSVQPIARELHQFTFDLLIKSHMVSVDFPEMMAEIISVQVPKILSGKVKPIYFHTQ
# procedure.text: Reporter gene assay, AR transcriptional (MMTV-Luc) in CV1 cells
# Format: cell-based
# protocol.conditions: pcDNA-AR + MMTV-Luc, 0.1 nM R1881 plus test compound, 24 hrs, read-out: B1 = AR transcriptional IC50 (μM) in CV1 cells
I'd be grateful if you could share measured IC50 for these entries.
One number for each entry, in µM.

Need IC50 for each of these compounds.
1. CC(C)C1CC(=O)C2=C(C1)Nc1ccc3ncccc3c1C2c1ccc([N+](=O)[O-])cc1 (stereo not drawn)
2. CC1(C)CC(=O)C2=C(C1)Nc1ccc3ncccc3c1C2c1ccc([N+](=O)[O-])c(O)c1 (stereo not drawn)
3. CC1(C)CC(=O)C2=C(C1)Nc1ccc3ncncc3c1C2c1ccc(F)c(F)c1 (racemic)
4. CC1(C)CC(=O)C2=C(C1)Nc1ccc3ncccc3c1C2c1ccc([N+](=O)[O-])cc1 (stereo not drawn)

1: 0.3; 2: 3.3; 3: 1.8; 4: 0.2

---

# assayed.system: AR (Homo sapiens, UniProt P10275)
# Construct: expressed in transfected cells; host or cells: CV1 cells
# procedure.text: Reporter gene assay, AR transcriptional (MMTV-Luc) in CV1 cells
# Type: cell-based
# protocol.conditions: pcDNA-AR + MMTV-Luc, 0.1 nM R1881 plus test compound, 24 hrs, read-out: B1 = AR transcriptional IC50 (μM) in CV1 cells
I'd be grateful if you could share measured IC50 for these entries.
Give bare numbers, in µM.

Here are 2 molecules together with their reported answers.
CC1(C)CC(=O)C2=C(C1)Nc1ccc3ncccc3c1C2c1ccc(Br)nc1 (stereo not drawn): 1.9
Cn1c(=O)n(C)c2cc(C3C4=C(CC(C)(C)CC4=O)Nc4ccc5ccccc5c43)ccc21 (stereo not drawn): 5.3

IC50 for Cc1ccsc1C1C2=C(CC(C)(C)CC2=O)Nc2ccc3ccccc3c21 (stereo not drawn) ? 2.3
